experiment: Displacement of [3H]DTG from sigma2 receptor in Sprague-Dawley rat liver membranes incubated for 2 hrs in presence of dextrallorphan by liquid scintillation counting based competitive radioligand binding assay; conditions: read-out: Ki(app)
READOUT TYPE: Ki (nM)
# output: bare number, implied unit nM

CC(=O)C1(c2ccccc2)CCN([C@@H]2CCCC[C@H]2O)CC1 (racemic); 164
O[C@@H]1C[C@@H](OCc2ccc(F)cc2)CC[C@H]1N1CCC(c2ccccc2)CC1 (racemic); 67.1
O[C@@H]1Cc2ccccc2C[C@H]1N1CCN(c2ccccc2)CC1 (racemic); 1280
O=C(c1ccc(F)cc1)C1CCN([C@@H]2CCCC[C@H]2O)CC1 (racemic); 730
O[C@@H]1CCCC[C@H]1N1CCC(Cc2ccccc2)CC1 (racemic); 108

Q) For the compound O[C@@H]1CC[C@@H](OCc2ccc(F)cc2)C[C@H]1N1CCC(Cc2ccccc2)CC1 (racemic) , give its measured Ki value.
A) 61.8

Q) For the compound O[C@@H]1CC=CC[C@H]1N1CCC(c2ccccc2)CC1 (racemic) , give its measured Ki value.
A) 77.1

Q) For the compound Nc1cccc2c1C[C@@H](O)[C@H](N1CCC(c3ccccc3)CC1)C2 (racemic) , give its measured Ki value.
A) 726

Q) For the compound O[C@@H]1CCCC[C@H]1N1CCC(c2ccccc2)CC1 (racemic) , give its measured Ki value.
A) 112
